- PROCEDURE DETAILS: Identification of proteins required for the processing of the EWS-FLI1 nascent transcript;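 also: robust z of luciferase light less the median z of siRNAs with the same seed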
- RUN CONDITIONS: TC32 Ewing sarcoma NR0B1-luc vs CMV-luc (EWS-FLI1 target promoter against control promoter), 48 h; screened at 20 nM (by protocol)
Whole data set: some 59,000 sequences, median the read-out near -0.00055, cut for the lowest 2% near -2. The entries come from a sample that favours the lowest values as a whole.
Known seed-corrected z-score of a selection of sequences

{"SEQ": "UCCGAGUCAAUACUGUAUC against UIMC1", "seed-corrected z-score": 0.162}
{"SEQ": "UGUCAUCCCAUCAAUGACU against PPIC", "seed-corrected z-score": -0.679}
{"SEQ": "AAGGAUAUUAAGAAGAAUC against ARMCX1", "seed-corrected z-score": 0.793}
{"SEQ": "UUGGGCACAUGCUCUAAGG against SUN2", "seed-corrected z-score": 1.57}
{"SEQ": "UUUGGGAUCAAAUCGGUGG against NAPSA", "seed-corrected z-score": 0.0625}
{"SEQ": "UUUCCGAUAGAUUGACUGC against SMPX", "seed-corrected z-score": 0.0624}
{"SEQ": "UGAGAAUUAUGAUCACUGC against SLC7A1", "seed-corrected z-score": -0.0797}
{"SEQ": "UCAUAGUUUAGUUCUCGAG against BBS9", "seed-corrected z-score": 0.745}
{"SEQ": "AAUGUUGACACGUCUCCUG against TOB1", "seed-corrected z-score": 0.235}
{"SEQ": "UCCGGUAAGACAUUCUCUG against EAPP", "seed-corrected z-score": 0.402}
{"SEQ": "UUCAGCAUAAAGACUGAUC against VPS41", "seed-corrected z-score": -0.683}
{"SEQ": "AAUCUUCACAUCAUUCUGG against TMEM70", "seed-corrected z-score": -0.646}
{"SEQ": "UCCAUGAGCGCAAUCAUGC against CAPN3", "seed-corrected z-score": 0.116}
{"SEQ": "UUCUCGUCUAGUUUGCAUC against SH3RF3", "seed-corrected z-score": 0.155}
{"SEQ": "ACUGGAAUAAGACCGGCUG against EMCN", "seed-corrected z-score": -0.0798}
{"SEQ": "AUAGGUGAGACGGAGGCUC against VASN", "seed-corrected z-score": 0.00423}
{"SEQ": "AUUGUUCCCAUAGAGUUCC against BCL2L1", "seed-corrected z-score": 3.29}
{"SEQ": "UGUUAUAGAAUGACGCACC against DNAH11", "seed-corrected z-score": -0.639}
{"SEQ": "UAUGUUAUCAGUCCAUCUG against MND1", "seed-corrected z-score": 0.573}
{"SEQ": "UCAGUGUUGGACUCCAUGC against NR2E3", "seed-corrected z-score": 0.652}
{"SEQ": "UUUUUGAACAUGGUAACAG against RPL31P7", "seed-corrected z-score": 1.16}
{"SEQ": "AUUGAGUAUCACGUCAUCC against TTLL4", "seed-corrected z-score": -2.43}
{"SEQ": "UUUUGGUCACUUCAAAUUC against MYDGF", "seed-corrected z-score": -2.17}
{"SEQ": "UCGGUAUUCGAUGUGGUCC against CD177", "seed-corrected z-score": 1.39}
{"SEQ": "UGUUGAGUAGGUCCGUUCC against EPHA7", "seed-corrected z-score": 0.58}
{"SEQ": "AAUGUACUAUCUACUUGCC against ZNF507", "seed-corrected z-score": -0.378}
